Assay: Therapeutic index, ratio of IC50 for human H9 cells to EC50 for multidrug-resistant HIV1 RTMDR1
Assay type: cell-based
Conditions: read-out: TI
Property: selectivity ratio

Input line: Any idea what selectivity ratio was measured for Cc1cc(=O)c2ccc3c(c2o1)[C@@H](OC(=O)C12CCC(C)(C(=O)O1)C2(C)C)[C@@H](OC(=O)C12CCC(C)(C(=O)O1)C2(C)C)C(C)(C)O3 (stereo partly specified) ?
Output line: 63

Input line: Item under review: CCOCc1cc(=O)c2ccc3c(c2o1)[C@@H](OC(=O)C12CCC(C)(C(=O)O1)C2(C)C)[C@@H](OC(=O)C12CCC(C)(C(=O)O1)C2(C)C)C(C)(C)O3 (stereo partly specified) . Reported selectivity ratio?
Output line: 34

Input line: Fill in: selectivity ratio of CC1(C)Oc2ccc3c(=O)cc(-c4ccccc4)oc3c2[C@@H](OC(=O)C23CCC(C)(C(=O)O2)C3(C)C)[C@H]1OC(=O)C12CCC(C)(C(=O)O1)C2(C)C (stereo partly specified) is ___
Output line: 71

Input line: Would you mind telling me what selectivity ratio value was observed for CCc1cc(=O)c2ccc3c(c2o1)[C@@H](OC(=O)C12CCC(C)(C(=O)O1)C2(C)C)[C@@H](OC(=O)C12CCC(C)(C(=O)O1)C2(C)C)C(C)(C)O3 (stereo partly specified) ?
Output line: 718

Input line: // returns reported selectivity ratio for input CCCc1cc(=O)c2ccc3c(c2o1)[C@@H](OC(=O)C12CCC(C)(C(=O)O1)C2(C)C)[C@@H](OC(=O)C12CCC(C)(C(=O)O1)C2(C)C)C(C)(C)O3 (stereo partly specified)
Output line: > 272

Input line: For CC(C)c1cc(=O)c2ccc3c(c2o1)[C@@H](OC(=O)C12CCC(C)(C(=O)O1)C2(C)C)[C@@H](OC(=O)C12CCC(C)(C(=O)O1)C2(C)C)C(C)(C)O3 (stereo partly specified) , what is its reported selectivity ratio?
Output line: > 111

====

Exercise: for every item that follows, state its recorded selectivity ratio.
Assay: Therapeutic index, ratio of IC50 for human H9 cells to EC50 for HIV 3B
Type: cell-based
Settings: read-out: TI
Answer as a number with no unit attached.

Input line: Consider the compound shown here: Cc1c(CBr)c(=O)oc2c3c(ccc12)OC(C)(C)[C@H](OC(=O)C12CCC(C)(C(=O)O1)C2(C)C)[C@@H]3OC(=O)C12CCC(C)(C(=O)O1)C2(C)C (some centres undefined) What is its recorded selectivity ratio?
Output line: 186000

Input line: What value of selectivity ratio has been recorded for this entry: "O=C(C[C@H](Cc1ccc(O)c(O)c1)C(=O)O)C1=Cc2cc(O)c(O)cc2[C@H](c2ccc(O)c(O)c2)[C@H]1CC[C@H](Cc1ccc(O)c(O)c1)C(=O)O"
Output line: 33.3

Input line: Item under review: "COc1c(C)c(O)c(C(=O)/C=C(\O)c2ccccc2)c(O)c1C=O" . Reported selectivity ratio?
Output line: 489

Input line: Please report the recorded selectivity ratio for "C[C@]12CCC[C@]3(C(=O)OC1)[C@@H]2CC[C@@]12C[C@@H](CC[C@H]13)[C@](C)(O)C2" .
Output line: 125

====

Exercise: for every item that follows, state its recorded selectivity ratio at 96 h.
Assay: Cytotoxicity against human H9 cells after 4 days by coulter counter
Format: cell-based
Settings: human, H9 cells; read-out: TI

Input line: Value lookup for selectivity ratio at 96 h; key = COc1cc2ccc3c(c2oc1=O)[C@@H](OC(=O)C12CCC(C)(C(=O)O1)C2(C)C)[C@@H](OC(=O)C12CCC(C)(C(=O)O1)C2(C)C)C(C)(C)O3 (some centres not stated)
Output line: > 15

Input line: Dear colleague, I am looking for the recorded selectivity ratio at 96 h of the following molecule: COc1cc(=O)oc2c3c(ccc12)OC(C)(C)[C@H](OC(=O)C12CCC(C)(C(=O)O1)C2(C)C)[C@@H]3OC(=O)C12CCC(C)(C(=O)O1)C2(C)C (some centres not stated)
Output line: > 15

Input line: # lookup: selectivity ratio at 96 h of COc1cc2c(c3oc(=O)ccc13)[C@@H](OC(=O)C13CCC(C)(C(=O)O1)C3(C)C)[C@@H](OC(=O)C13CCC(C)(C(=O)O1)C3(C)C)C(C)(C)O2 (some centres not stated)
Output line: > 15

Input line: selectivity ratio at 96 h lookup needed for Cc1cc2ccc(=O)oc2c2c1OC(C)(C)[C@H](OC(=O)C13CCC(C)(C(=O)O1)C3(C)C)[C@@H]2OC(=O)C12CCC(C)(C(=O)O1)C2(C)C (some centres not stated) , thanks.
Output line: > 16

Input line: Would you kindly share the measured selectivity ratio at 96 h for CC1(C)Oc2ccc3ccc(=O)oc3c2[C@@H](OC(=O)C23CCC(C)(C(=O)O2)C3(C)C)[C@H]1OC(=O)C12CCC(C)(C(=O)O1)C2(C)C (some centres not stated) ?
Output line: > 16.1

Input line: So what does the record say about selectivity ratio at 96 h for Cc1cc2c(c3oc(=O)ccc13)[C@@H](OC(=O)C13CCC(C)(C(=O)O1)C3(C)C)[C@@H](OC(=O)C13CCC(C)(C(=O)O1)C3(C)C)C(C)(C)O2 (some centres not stated) ?
Output line: > 16

Input line: I would be grateful if you could share the reported selectivity ratio at 96 h for Cc1cc(=O)oc2c3c(ccc12)OC(C)(C)[C@H](OC(=O)C12CCC(C)(C(=O)O1)C2(C)C)[C@@H]3OC(=O)C12CCC(C)(C(=O)O1)C2(C)C (some centres not stated) .
Output line: > 39

====

Test: Therapeutic index, ratio of IC50 for human H9 cells to EC50 for HIV 3B
Assay type: cell-based
Settings: read-out: TI
Property: selectivity ratio
# answer = number (no unit)

Input line: Suppose we examine the molecule CC1(C)Oc2ccc3c(=O)cc(-c4ccccc4)oc3c2[C@@H](OC(=O)C23CCC(C)(C(=O)O2)C3(C)C)[C@H]1OC(=O)C12CCC(C)(C(=O)O1)C2(C)C (some centres not stated) ; what selectivity ratio value has been reported?
Output line: 277

Input line: Recorded selectivity ratio for Cc1cc(=O)c2ccc3c(c2o1)[C@@H](OC(=O)C12CCC(C)(C(=O)O1)C2(C)C)[C@@H](OC(=O)C12CCC(C)(C(=O)O1)C2(C)C)C(C)(C)O3 (some centres not stated) , please?
Output line: 8600

Input line: selectivity ratio lookup needed for OC[C@@H](O)C[C@H]1OCC2(O)c3c(cc(O)c4c3O[C@@H](c3cc(O)c(O)c(O)c3)[C@@H](O)C4)OC12O (some centres not stated) , thanks.
Output line: 9.5

Input line: Tell me the measured selectivity ratio of CCOCc1cc(=O)c2ccc3c(c2o1)[C@@H](OC(=O)C12CCC(C)(C(=O)O1)C2(C)C)[C@@H](OC(=O)C12CCC(C)(C(=O)O1)C2(C)C)C(C)(C)O3 (some centres not stated) , please.
Output line: 151

Input line: Look up selectivity ratio for this molecule: CCCc1cc(=O)c2ccc3c(c2o1)[C@@H](OC(=O)C12CCC(C)(C(=O)O1)C2(C)C)[C@@H](OC(=O)C12CCC(C)(C(=O)O1)C2(C)C)C(C)(C)O3 (some centres not stated)
Output line: 1860

Input line: Which selectivity ratio value is on record for "CC(C)(O)[C@H](O)COc1c2occc2cc2ccc(=O)oc12" ?
Output line: 870

Input line: Fill in the blank: the reported selectivity ratio of "COc1cc2c(cc1O)[C@@H](Cc1ccc(O)cc1)NCC2" is ____.
Output line: 125

Input line: GET /values?readout=selectivity ratio&item= "CC(=O)O[C@@H]1[C@H](OC(=O)CC(C)C)c2c(ccc3ccc(=O)oc23)OC1(C)C"
Output line: 40

Input line: Endpoint output: selectivity ratio of "COc1cc2c(c(OC)c1OC)-c1c(cc3c(c1OC)OCO3)[C@H](OC(=O)c1ccccc1)[C@@](C)(O)[C@@H](C)C2" . Value?
Output line: 600

Input line: Look up selectivity ratio: CCc1cc(=O)c2ccc3c(c2o1)[C@@H](OC(=O)C12CCC(C)(C(=O)O1)C2(C)C)[C@@H](OC(=O)C12CCC(C)(C(=O)O1)C2(C)C)C(C)(C)O3 (some centres not stated)
Output line: 116000

====

Experiment: Therapeutic index, ratio of IC50 for human H9 cells to EC50 for HIV 3B
Type: cell-based
Conditions: read-out: TI
What selectivity ratio was measured for each of the following?
Lab note: jot the number down without any unit.

Input line: What measured selectivity ratio goes with Cc1c(CO)c(=O)oc2c3c(ccc12)OC(C)(C)[C@H](OC(=O)C12CCC(C)(C(=O)O1)C2(C)C)[C@@H]3OC(=O)C12CCC(C)(C(=O)O1)C2(C)C (stereo partly drawn) ?
Output line: 6000

Input line: Which value of selectivity ratio has been reported for "CC(C)=CCC/C(C)=C/CC[C@@]1(C)C=Cc2c(cc(C)c(C(=O)O)c2O)O1" in the records?
Output line: 3710

Input line: Recorded selectivity ratio of CC(C)c1cc(=O)c2ccc3c(c2o1)[C@@H](OC(=O)C12CCC(C)(C(=O)O1)C2(C)C)[C@@H](OC(=O)C12CCC(C)(C(=O)O1)C2(C)C)C(C)(C)O3 (stereo partly drawn) , please.
Output line: 483
